The values you see were collected from paper PMC5914176.

method_description: in vivo
condition_context: mouse, iv, 1.5 mg/kg, t1/2 (IV half-life), IV 0.5, 1.0 and 1.5 mg/kg, plasma
measurement_label: half-life

get_value(item= CCCCN1CCC(N(Cc2ccccc2)C(=O)Nc2ccc(Cl)c(Cl)c2)CC1 , readout=half-life) returns 3 to 4 h

====

method_description: in vitro
condition_context: female, CD9, mouse, microsomes, pH 7.4, CLint’, Table 2, mean ± SD, three replicates
measurement_label: CLint scaled at 0.8 µM

Form field CLint scaled at 0.8 µM, entry CCCC(C)N1CCC(N(Cc2ccccc2)C(=O)Nc2cccc(C(C)C)c2)CC1 (stereo not shown) [Compound 23] : 256 mL/min/kg

Measured CLint scaled at 0.8 µM, CCCC(C)N1CCC(N(Cc2ccccc2)C(=O)Nc2ccc(C(F)(F)F)cc2)CC1 (stereo not shown) [Compound 24] : 125 mL/min/kg

Form field CLint scaled at 0.8 µM, entry CCCC(C)N1CCC(N(Cc2ccccc2)C(=O)Nc2ccc(Cl)cc2)CC1 (stereo not shown) [Compound 25] : 156 mL/min/kg

The recorded CLint scaled at 0.8 µM for entry CCCC(C)N1CCC(N(Cc2ccccc2)C(=O)Nc2ccc(Br)cc2)CC1 (stereo not shown) [Compound 26] equals 148 mL/min/kg

In plain terms, CCCC(C)N1CCC(N(Cc2ccccc2)C(=O)Nc2ccc(C)cc2)CC1 (stereo not shown) [Compound 28] has a documented CLint scaled at 0.8 µM of 356 mL/min/kg

Memo: CCCC(C)N1CCC(N(Cc2ccccc2)C(=O)Nc2ccc(C(C)C)cc2)CC1 (stereo not shown) [Compound 29] , reported CLint scaled at 0.8 µM: 323 mL/min/kg

Noted for CCCC(C)N1CCC(N(Cc2ccccc2)C(=O)Nc2ccc(I)cc2)CC1 (stereo not shown) [Compound 27] : its CLint scaled at 0.8 µM reads 115 mL/min/kg
